assayedTarget: Adenosine receptor A1 (Rattus norvegicus)
assayInfo: Inhibition of rat adenosine A1 receptor at 1 uM
measurementType: inhibition (%)
// note: answer is a bare numeric in %

{"molSmiles": "Cc1sc2nc(C(=O)c3ccccc3)n3c(=S)[nH]nc3c2c1C", "measurementType": "inhibition", "measurement": 0}
{"molSmiles": "CCCc1nc2sc3c(c2c2n[nH]c(=S)n12)CCCC3", "measurementType": "inhibition", "measurement": 0}
{"molSmiles": "CCCc1nc2sc(C)c(C)c2c2n[nH]c(=S)n12", "measurementType": "inhibition", "measurement": 13}

In the following, a different compound is considered.
# compound `Cc1sc2nc(-c3ccccc3)n3c(=S)[nH]nc3c2c1C` ; its inhibition = 0

###

assayedTarget: UniProt P25099
Sequence (P25099 whole entry): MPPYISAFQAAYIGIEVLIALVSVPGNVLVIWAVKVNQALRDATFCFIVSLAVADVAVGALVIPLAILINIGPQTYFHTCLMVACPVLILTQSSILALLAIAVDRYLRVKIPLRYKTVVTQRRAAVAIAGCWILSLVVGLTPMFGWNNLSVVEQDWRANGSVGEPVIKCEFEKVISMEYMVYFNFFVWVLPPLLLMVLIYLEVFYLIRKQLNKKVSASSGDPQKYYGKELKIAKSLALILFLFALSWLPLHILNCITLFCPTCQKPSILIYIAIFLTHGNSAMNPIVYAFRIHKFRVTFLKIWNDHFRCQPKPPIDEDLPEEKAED
assayInfo: Inhibition of rat adenosine A1 receptor at 1 uM
Quick list: inhibition per entry.
// note: answer is a bare numeric in %

`S=c1[nH]nc2c3c4c(sc3nc(-c3ccncc3)n12)CCCC4` on UniProt P25099 gives inhibition = 0

`Cc1sc2nc(C)n3c(=S)[nH]nc3c2c1C` on UniProt P25099 gives inhibition = 4

`CCc1nc2sc3c(c2c2n[nH]c(=S)n12)CCCC3` on UniProt P25099 gives inhibition = 56

`O=C(c1ccccc1)c1nc2sc3c(c2c2n[nH]c(=S)n12)CCCC3` on UniProt P25099 gives inhibition = 0

`CCc1nc2sc(C)c(C)c2c2n[nH]c(=S)n12` on UniProt P25099 gives inhibition = 21

`Cc1nc2sc3c(c2c2n[nH]c(=S)n12)CCCC3` on UniProt P25099 gives inhibition = 26

`S=c1[nH]nc2c3c4c(sc3nc(-c3ccccc3)n12)CCCC4` on UniProt P25099 gives inhibition = 0
